- SUBJECT_OF_TEST: BRD4 (BD1) (Homo sapiens)
- Construct: Each member comprises two tandem bromodomains (BD1 and BD2) for recognizing the acetylated lysine residues
- EXPERIMENT_NOTES: BRD4 (BD1) bromodomain binding, HTRF
- ASSAY_CONDITIONS: 2 h incubation at r.t.
MEASUREMENT_LABEL: log10 of IC50 (log10 of the value in nM)
Scale type: logarithmic (base 10). Underlying IC50 unit: nM.

Reference set (3 entries):
INSERT INTO results (compound, measurement_label, test_result) VALUES
  ('CCS(=O)(=O)Cc1ccc2c(c1)-c1cn(C)c(=O)cc1CN=C2c1ccc(F)cc1F [Compound 4012]', 'log10 of IC50', 0.60),
  ('CCS(=O)(=O)Cc1cc2c(cc1O)C(c1ccc(F)cc1)=N[C@@H](C)c1cc(=O)n(C)cc1-2 [Compound 4063]', 'log10 of IC50', 0.00),
  ('Cn1cc2c(cc1=O)[C@H](CC(N)=O)N=C(c1ccc(Cl)cc1)c1ncccc1-2 [Compound 4029]', 'log10 of IC50', 0.78);

In plain terms, C[C@@H]1N=C(c2ccc(F)cc2)c2ccc(CS(=O)(=O)N(C)C)cc2-c2cn(C)c(=O)cc21 [Compound 4073] has a documented log10 of IC50 of 0.00

In plain terms, CCS(=O)(=O)Nc1cc2c(cc1Cl)C(c1ccc(F)cc1)=N[C@@H](C1CC1)c1cc(=O)n(C)cc1-2 [Compound 4077] has a documented log10 of IC50 of 0.00

In plain terms, CCS(=O)(=O)Cc1ccc2c(c1)-c1cn(C)c(=O)cc1N(C)N=C2c1ccc(F)cc1Cl [Compound 4093] has a documented log10 of IC50 of 0.70

In plain terms, CCS(=O)(=O)Cc1ccc2c(c1)C(c1ccc(F)cc1)=NCc1cc(=O)n(C)cc1-2 [Compound 4039] has a documented log10 of IC50 of 2.21

In plain terms, C[C@@H]1N=C(c2ccc(F)cc2)c2ccc(CS(=O)(=O)C3CC3)cc2-c2cn(C)c(=O)cc21 [Compound 4045] has a documented log10 of IC50 of 0.00

In plain terms, CNS(=O)(=O)C(C)(C)c1ccc2c(c1)-c1cn(C)c(=O)cc1[C@H](C)N=C2c1ccc(F)cc1 [Compound 4090] has a documented log10 of IC50 of 0.00

In plain terms, C[C@@H]1N=C(c2ccc(F)cc2)c2ccc(CS(C)(=O)=O)cc2-c2cn(C)c(=O)cc21 [Compound 4059] has a documented log10 of IC50 of 0.30

In plain terms, CCNC(=O)Nc1ccc2c(c1)-c1cn(C)c(=O)cc1[C@H](C)N=C2c1ccc(F)cc1 [Compound 4051] has a documented log10 of IC50 of 0.70

----------
- SUBJECT_OF_TEST: BRD4 (BD1) (Homo sapiens, UniProt O60885)
- Construct: Each member comprises two tandem bromodomains (BD1 and BD2) for recognizing the acetylated lysine residues
- EXPERIMENT_NOTES: BRD4 (BD1) bromodomain binding, HTRF
- ASSAY_CONDITIONS: 2 h incubation at r.t.
MEASUREMENT_LABEL: IC50
Give the value; after it, write the unit.

INSERT INTO assay_data (molecule, test_result) VALUES
  ('CCS(=O)(=O)Cc1cnc2c(c1)-c1cn(C)c(=O)cc1CN=C2c1ccc(F)cc1', '12 nM'),
  ('Cn1cc2c(cc1=O)CNC(c1ccc(F)cc1)c1ccc(CS(C)(=O)=O)cc1-2 (stereo not drawn)', '113 nM');

Tested on BRD4 (BD1) (Homo sapiens, UniProt O60885): `CCS(=O)(=O)Nc1cc2c(cc1F)C(c1ccc(Cl)cc1)=N[C@@H](C)c1cc(=O)n(C)cc1-2` . Observed IC50: 1 nM

Tested on BRD4 (BD1) (Homo sapiens, UniProt O60885): `CC[C@@H]1N=C(c2ccc(Cl)cc2)c2ccc(CS(=O)(=O)CC)cc2-c2cn(C)c(=O)cc21` . Observed IC50: 0.4 nM

----------
As shown below, each of these compounds has a reported CLint scaled at 1 µM value.
- EXPERIMENT_NOTES: Metabolic stability in human liver microsomes
- Format: in vitro ADME
- ASSAY_CONDITIONS: pH 7.4; human liver microsomes 0.5 mg/mL, NADPH, 37° C.; read-out: HLM_CLint
Please reply with the bare figure in mL/min/kg and do not write the unit itself.

In plain terms, CCS(=O)(=O)Nc1ccc(Oc2ccc(F)cc2F)c(-c2cn(C)c(=O)c3[nH]ccc23)c1 [ABBV-075] has a documented CLint scaled at 1 µM of 1.19

----------
- EXPERIMENT_NOTES: Cassette pharmacokinetic study, intravenous or oral administration
- Format: in vivo, female Balb/c nude mice
- Set-up: unit not given here
- ASSAY_CONDITIONS: PO 2 mg/kg, N = 3, cassette
As shown below, each of these molecules has a reported Cmax value.
Kindly provide the number alone.

Reference set (3 entries):
INSERT INTO assay_data (input_smiles, test_result) VALUES
  ('CCS(=O)(=O)Nc1cc2c(cc1Cl)C(c1ccc(F)cc1)=NCc1cc(=O)n(C)cc1-2', 1009),
  ('CCS(=O)(=O)Cc1ccc2c(c1)-c1cn(C)c(=O)cc1CN=C2c1ccc(F)cc1', 742),
  ('CCS(=O)(=O)Nc1ccc2c(c1)-c1cn(C)c(=O)cc1CN=C2c1ccc(F)cc1', 41.9);

Here is another molecule to look at.
In plain terms, `CCS(=O)(=O)Cc1ccc2c(c1)-c1cn(C)c(=O)cc1[C@H](C)N=C2c1ccc(F)cc1` has a documented Cmax of 1082

----------
- SUBJECT_OF_TEST: BRD4 (BD2) (Homo sapiens)
- Construct: Each member comprises two tandem bromodomains (BD1 and BD2) for recognizing the acetylated lysine residues
- EXPERIMENT_NOTES: BRD4 (BD2) bromodomain binding, HTRF
- ASSAY_CONDITIONS: 2 h incubation at r.t.
As shown below, each of these molecules has a reported IC50 value.
Please reply with the bare figure in nM and do not write the unit itself.

Reference set (3 entries):
INSERT INTO measurements (molecule, subject_of_test, unit_tag, test_result) VALUES
  ('CNS(=O)(=O)C(C)(C)c1ccc2c(c1)-c1cn(C)c(=O)cc1[C@H](C)N=C2c1ccc(F)cc1', 'BRD4 (BD2) (Homo sapiens)', 'nM', 1),
  ('CCNC(=O)C[C@@H]1N=C(c2ccc(Cl)cc2)c2cc(F)ccc2-c2cn(C)c(=O)cc21', 'BRD4 (BD2) (Homo sapiens)', 'nM', 1),
  ('C[C@@H]1N=C(c2ccc(F)cc2)c2ccc(CS(=O)(=O)C3CC3)cc2-c2cn(C)c(=O)cc21', 'BRD4 (BD2) (Homo sapiens)', 'nM', 1);

In plain terms, `C[C@@H]1N=C(c2ccc(F)cc2)c2cc(Cl)c(N)cc2-c2cn(C)c(=O)cc21` has a documented IC50 of 2

In plain terms, CNS(=O)(=O)C(C)c1ccc2c(c1)-c1cn(C)c(=O)cc1[C@H](C)N=C2c1ccc(F)cc1 (stereo partly drawn) has a documented IC50 of 0.7

In plain terms, `C[C@@H]1N=C(c2ccc(F)cc2)c2cc(Cl)c(NS(C)(=O)=O)cc2-c2cn(C)c(=O)cc21` has a documented IC50 of 1

In plain terms, `CCS(=O)(=O)Nc1cc2c(cc1Cl)C(c1ccc(Cl)cc1)=N[C@@H](C)c1cc(=O)n(C)cc1-2` has a documented IC50 of 0.5

In plain terms, `CCS(=O)(=O)Cc1ccc2c(c1)-c1cn(C)c(=O)cc1[C@H](C(C)C)N=C2c1ccc(F)cc1` has a documented IC50 of 1

In plain terms, `CCS(=O)(=O)Cc1ccc2c(c1)-c1cn(C)c(=O)cc1CN=C2c1ccc(Cl)cc1F` has a documented IC50 of 2

In plain terms, `CNS(=O)(=O)Cc1ccc2c(c1)-c1cn(C)c(=O)cc1[C@H](C)N=C2c1ccc(F)c(OC)c1` has a documented IC50 of 0.6

In plain terms, `CC(C)NC(=O)C[C@@H]1N=C(c2ccc(Cl)cc2)c2ccccc2-c2cn(C)c(=O)cc21` has a documented IC50 of 2

In plain terms, `CCS(=O)(=O)Cc1cc2c(cc1OC)C(c1ccc(F)cc1)=NCc1cc(=O)n(C)cc1-2` has a documented IC50 of 2

In plain terms, `CCS(=O)(=O)Cc1ccc2c(c1)-c1cn(C)c(=O)cc1[C@H](C)N=C2c1ccc(F)cc1F` has a documented IC50 of 1

In plain terms, `CCNC(=O)C[C@@H]1N=C(c2ccc(F)cc2)c2cc(OC)ccc2-c2cn(C)c(=O)cc21` has a documented IC50 of 1

In plain terms, `CC[C@@H]1N=C(c2ccc(F)cc2)c2cc(F)c(NS(=O)(=O)CC)cc2-c2cn(C)c(=O)cc21` has a documented IC50 of 1
